Molecular target: 5-HT2B (Homo sapiens)
Construct: host or cells: CHO-K1
Sequence (P41595 whole entry, species assumed): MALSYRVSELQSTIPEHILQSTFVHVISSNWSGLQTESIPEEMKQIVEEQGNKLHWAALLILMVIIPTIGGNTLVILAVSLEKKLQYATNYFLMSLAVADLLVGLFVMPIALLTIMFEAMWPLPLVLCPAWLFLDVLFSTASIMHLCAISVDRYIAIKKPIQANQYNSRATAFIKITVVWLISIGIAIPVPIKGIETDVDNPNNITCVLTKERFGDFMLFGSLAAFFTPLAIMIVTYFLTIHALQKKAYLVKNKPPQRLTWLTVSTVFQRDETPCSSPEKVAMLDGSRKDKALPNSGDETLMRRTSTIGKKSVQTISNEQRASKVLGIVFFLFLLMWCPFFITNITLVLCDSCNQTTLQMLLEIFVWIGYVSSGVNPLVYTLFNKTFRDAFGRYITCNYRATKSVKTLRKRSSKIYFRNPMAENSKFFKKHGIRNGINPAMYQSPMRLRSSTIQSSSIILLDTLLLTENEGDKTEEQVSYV
Assay: Activation in a similar Ca2+ flux assay at a single concentration, 5-HT2B
Format: cell-based
Settings: head prints 10 µM
Threshold check on 5-HT2B % Activation @ 10 µM: at or above 1% gives Condition met, strictly below gives Condition not met.

Observe how each entry below is paired with its result.
CCN(C)CCc1n[nH]c2cc(F)cc(F)c12 [Example A29]	Condition not met
CCN(C)CCc1n[nH]c2ccc(F)c(F)c12 [Example A70]	Condition not met
CN(C)CCc1n[nH]c2ccc(F)cc12 [Example A17]	Condition met
COc1ccc(F)c2[nH]nc(CCN(C)C)c12 [Example A44]	Condition not met

5-HT2B % Activation @ 10 µM >= 1% for COc1ccc2[nH]nc(CCNCc3ccccc3F)c2c1 [Example A64] ?
Condition not met

Kindly determine if 5-HT2B % Activation @ 10 µM recorded for CCN(C)CCc1n[nH]c2cc(F)cc(OC)c12 [Example A39] is above or exactly 1%.
Condition not met

Test whether the compound COc1ccccc1CNCCc1n[nH]c2cc(F)cc(F)c12 [Example A33] records 5-HT2B % Activation @ 10 µM of 1% or higher.
Condition met

Is 5-HT2B % Activation @ 10 µM at least 1%? Consider COc1cc2c(CCN3CCC3)n[nH]c2cc1F [Example A56]
Condition met

Quick check, 5-HT2B % Activation @ 10 µM >= 1%? COc1cc(F)c2[nH]nc(CCN3CCC3)c2c1 [Example A53]
Condition not met

Determine whether measured 5-HT2B % Activation @ 10 µM meets or exceeds 1% for COc1cc2c(CCN3CCC3C)n[nH]c2cc1F (centres unmarked) [Example A58]
Condition not met

Confirm if 5-HT2B % Activation @ 10 µM reported for the compound CN(C)CCc1n[nH]c2ccc(F)c(F)c12 [Example A69] is 1% or above.
Condition met

---

Target: 5-HT2A (Homo sapiens, UniProt P28223)
Sequence (P28223 whole entry): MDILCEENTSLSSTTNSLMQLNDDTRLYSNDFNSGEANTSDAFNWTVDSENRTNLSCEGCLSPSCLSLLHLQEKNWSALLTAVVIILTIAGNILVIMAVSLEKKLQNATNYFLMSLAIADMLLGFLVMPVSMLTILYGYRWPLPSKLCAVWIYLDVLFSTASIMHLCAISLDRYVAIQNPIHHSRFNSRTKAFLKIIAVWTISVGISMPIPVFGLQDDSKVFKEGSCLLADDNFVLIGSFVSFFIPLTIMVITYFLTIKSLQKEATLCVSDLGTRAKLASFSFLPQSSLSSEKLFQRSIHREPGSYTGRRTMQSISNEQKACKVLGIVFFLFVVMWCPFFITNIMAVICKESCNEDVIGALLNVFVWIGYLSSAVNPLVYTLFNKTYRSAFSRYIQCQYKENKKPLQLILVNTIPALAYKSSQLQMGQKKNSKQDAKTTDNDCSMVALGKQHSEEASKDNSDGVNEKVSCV
Test: FLIPR Ca2+ flux functional assay, 5-HT2A (HEK293)
Conditions: agonist activity, HEK293 cells expressing 5-HT2A
metric: pEC50
By convention, pEC50 is the negative base-10 log of a molar concentration.

// known answers, use as guide
COc1ccc(F)c2[nH]nc(CCN(C)C)c12	7.03
COc1cc2c(CCN3CCC3C)n[nH]c2cc1F (stereo not shown)	5.95
CCN(C)CCc1n[nH]c2cc(F)cc(OC)c12	6.94
COc1cccc(CNCCc2n[nH]c3ccc(OC)cc23)c1	7.30

Identify measured pEC50 corresponding to COc1cc2c(CCN3CCC3)n[nH]c2cc1F
6.98

// fetch pEC50 given entry COc1ccccc1CNCCc1n[nH]c2cc(F)cc(F)c12
7.84

For the molecule CCN(C)CCc1n[nH]c2c(F)cc(OC)cc12 , give its measured pEC50 value.
7.06

---

Reported pEC50 values are given for each entry in this list.
Molecular target: 5-HT2C (Homo sapiens)
Sequence (P28335 33-458): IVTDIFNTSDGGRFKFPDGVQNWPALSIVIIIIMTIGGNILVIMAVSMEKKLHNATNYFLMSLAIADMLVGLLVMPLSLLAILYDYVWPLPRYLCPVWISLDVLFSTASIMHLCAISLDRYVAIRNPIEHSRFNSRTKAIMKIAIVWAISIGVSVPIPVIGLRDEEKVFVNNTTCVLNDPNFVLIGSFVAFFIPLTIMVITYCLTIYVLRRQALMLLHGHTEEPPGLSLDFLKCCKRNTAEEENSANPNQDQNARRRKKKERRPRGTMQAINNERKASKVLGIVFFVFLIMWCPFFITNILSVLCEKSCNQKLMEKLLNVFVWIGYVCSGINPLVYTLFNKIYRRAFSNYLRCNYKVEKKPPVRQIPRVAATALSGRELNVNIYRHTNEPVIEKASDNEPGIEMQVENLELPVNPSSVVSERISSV
Assay: FLIPR Ca2+ flux functional assay, 5-HT2C (HEK293)
Details: agonist activity, HEK293 cells expressing 5-HT2C
Interpret pEC50 as the negative base-10 log of the concentration measured in mol/L.

Please review the entries below; each comes with its answer.
CN(C)CCc1n[nH]c2c(F)cc(F)cc12	6.31
COc1ccccc1CNCCc1n[nH]c2cc(F)cc(F)c12	6.80

Note: attention shifts to another entry.
Please give measured pEC50 of the following entry: CN(CCc1n[nH]c2ccc(F)cc12)C1CC1
6.69

---

Consider the following compounds and their measured Emax readings.
Molecular target: 5-HT2C (Homo sapiens)
Construct: host or cells: HEK293
Test: FLIPR Ca2+ flux functional assay, 5-HT2C (HEK293)
Type: cell-based
Conditions: HEK293, agonist activity, HEK293 cells expressing 5-HT2C
Numeric only. Scale: %

Example results:
COc1ccccc1CNCCc1n[nH]c2cc(F)cc(F)c12 [Example A33]	90
CN(C)CCc1n[nH]c2ccccc12 [Example P-7]	40.2
CCN(C)CCc1n[nH]c2c(F)ccc(OC)c12 [Example A45]	61
COc1cc(F)c2[nH]nc(CCN3CCCC3)c2c1 [Example A54]	38
CCN(C)CCc1n[nH]c2cc(F)cc(F)c12 [Example A29]	70
CCCN(CCC)CCc1n[nH]c2cccc(O)c12 [Example P-45]	40.2
COc1cc(F)cc2[nH]nc(CCN3CCC3)c12 [Example A41]	65
COc1cc(F)cc2[nH]nc(CCN3CCCC3)c12 [Example A42]	89

Using known records, supply Emax for COc1ccc(F)c2[nH]nc(CCN3CCC4CC43)c12 (stereo not drawn) [Example A49]
59

---

Documented Emax across a set of molecules
Molecular target: 5-HT2C (Homo sapiens, UniProt P28335)
Construct: host or cells: HEK293
Assay: FLIPR Ca2+ flux functional assay, 5-HT2C (HEK293)
Type: cell-based
Conditions: HEK293, agonist activity, HEK293 cells expressing 5-HT2C

Fc1ccc2[nH]nc(CCN3CCCC3)c2c1F [Example A73]	70%
CCN(C)CCc1n[nH]c2ccc(F)c(F)c12 [Example A70]	76%
CC(C)N(C)CCc1n[nH]c2ccc(F)cc12 [Example A19]	69%
CN(C)CCc1n[nH]c2ccc(F)c(F)c12 [Example A69]	62%
COc1ccccc1CNCCc1n[nH]c2ccc(F)c(F)c12 [Example A74]	95%

Name the recorded Emax of the molecule listed here: COc1ccc2[nH]nc(CCN(C)C)c2c1F [Example A9]
73%

Indicate its recorded Emax; the molecule in question is CCN(C)CCc1n[nH]c2c(F)cc(OC)cc12 [Example A51]
43%

Give Emax for COc1cc2c(CCN3CC4CC4C3)n[nH]c2cc1F (centres unmarked) [Example A61]
21%

Specify Emax for COc1ccc(F)c2[nH]nc(CCN(C)C(C)C)c12 [Example A46] and stop.
0%

Please report Emax for the following molecule: CCN(C)CCc1n[nH]c2cc(F)c(OC)cc12 [Example A6]
101%

---

Target: 5-HT2A (Homo sapiens, UniProt P28223)
Assay: FLIPR Ca2+ flux functional assay, 5-HT2A (HEK293)
Conditions: agonist activity, HEK293 cells expressing 5-HT2A
Exam item: assign TRUE to entries whose EC50 is below 300 nM and FALSE to entries at or above 300 nM. Note that a value of exactly 300 nM receives FALSE.

COc1cc2c(CCN(C)C)n[nH]c2cc1F [Example A5]	TRUE
CCN(C)CCc1n[nH]c2ccc(F)c(F)c12 [Example A70]	FALSE
CCN(C)CCc1n[nH]c2c(F)cc(F)cc12 [Example A36]	FALSE
CCN(C)CCc1n[nH]c2ccc(F)cc12 [Example A18]	TRUE
COc1cc2c(CCN3CCCC3)n[nH]c2cc1F [Example A59]	TRUE

Turning now to a further molecule:
Does this molecule meet the criterion EC50 < 300 nM? COc1ccc2[nH]nc(CCNCc3ccccc3)c2c1 [Example A62]
TRUE

---

Attribute: Emax
Biological target: 5-HT2A (Homo sapiens, UniProt P28223)
Construct: host or cells: HEK293
Experiment: FLIPR Ca2+ flux functional assay, 5-HT2A (HEK293)
Format: cell-based
Details: HEK293, agonist activity, HEK293 cells expressing 5-HT2A
Reply numerically in %, unit not repeated.

CCN(C)CCc1n[nH]c2ccc(OC)c(F)c12	69
COc1cc2c(CCN3CC(C)C3)n[nH]c2cc1F	70

Using known records, supply Emax for CCN(C)CCc1n[nH]c2cc(F)c(OC)cc12
86

Please give measured Emax of the following entry: COc1cc2c(CCN(C)C)n[nH]c2cc1F
87

Return Emax (reported value) for this compound: COc1ccc(F)c2[nH]nc(CCN(C)C)c12
52

State, in one line, measured Emax of CN(CCc1n[nH]c2ccc(F)cc12)C1CC1
45

Determine from records and report Emax for CN(C)CCc1n[nH]c2cccc(F)c12
55

Determine its reported Emax: CCN(C)CCc1n[nH]c2c(F)ccc(OC)c12
67

Provide Emax value for the following compound: CCN(C)CCc1n[nH]c2ccc(F)c(OC)c12
87

Supply recorded Emax for CCN(C)CCc1n[nH]c2ccc(F)c(F)c12 here.
78

Provide one value: measured Emax of COc1cc(F)cc2[nH]nc(CCN3CCCC3)c12
81

Read the entry COc1c(F)ccc2[nH]nc(CCN(C)C3CC3)c12 and write its reported Emax.
67
